Experiment: Cytotoxicity against human HepG2 cells by Cell Titer Glo assay
Assay type: toxicity, cell-based
Quantity Kind: GI50

QUERY: For the compound FC(F)(F)c1nc(NCCCNc2nc3nonc3nc2Nc2cccc(Cl)c2)ccc1Cl , what GI50 is on record?
RESULT: 8.7 µg/mL

QUERY: Look up GI50 for this compound: CCCCNc1nc2nonc2nc1Nc1cccc(Cl)c1
RESULT: 5.7 µg/mL

---

Test: Cytotoxicity against human HepG2 cells by Cell Titer Glo assay
Format: toxicity, cell-based
Label t when GI50 is strictly below 3 µg/mL; otherwise label f.

Worked cases, answers included:
Clc1cccc(CNc2nc3nonc3nc2Nc2cccc(Cl)c2)c1 : f
Clc1cccc(CNc2nc3nonc3nc2NCc2cccc(Cl)c2)c1 : t
Clc1ccc(CNc2nc3nonc3nc2Nc2cccc(Cl)c2)cc1 : f
FC(F)(F)c1nc(NCCCNc2nc3nonc3nc2NCCCNc2ccc(Cl)c(C(F)(F)F)n2)ccc1Cl : t
Clc1ccc(CNc2nc3nonc3nc2NCc2ccc(Cl)cc2)cc1 : f

QUERY: Dear colleague, could you confirm whether GI50 of CCCCCCCNc1nc2nonc2nc1NCCCCCCC falls below 3 µg/mL? Thanks.
RESULT: t
